- ASSAY TARGET: Recombinant human liver GK1 (GST-GK) (Homo sapiens, UniProt P35557)
- Construct: made in house; host or cells: E. coli
- Sequence (P35557 1-466 isoform P35557-2): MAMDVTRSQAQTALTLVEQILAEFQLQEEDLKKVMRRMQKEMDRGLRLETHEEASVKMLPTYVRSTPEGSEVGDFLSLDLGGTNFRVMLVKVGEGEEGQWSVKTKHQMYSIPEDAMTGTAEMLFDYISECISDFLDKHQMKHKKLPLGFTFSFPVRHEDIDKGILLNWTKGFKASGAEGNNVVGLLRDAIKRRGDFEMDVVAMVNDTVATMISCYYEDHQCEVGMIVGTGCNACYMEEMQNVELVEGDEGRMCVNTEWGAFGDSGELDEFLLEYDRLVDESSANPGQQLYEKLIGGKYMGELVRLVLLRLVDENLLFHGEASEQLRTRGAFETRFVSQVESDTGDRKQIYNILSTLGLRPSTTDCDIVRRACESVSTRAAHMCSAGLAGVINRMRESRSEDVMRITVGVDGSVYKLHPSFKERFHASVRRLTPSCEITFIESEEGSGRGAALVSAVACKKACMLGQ
- ASSAY REMARKS: In vitro glucokinase activity, G6PDH-coupled spectrophotometric assay
- Type: biochemical
- EXPERIMENTAL PARAMETERS: 5 mM D-glucose, 30° C., pH 7.1
One threshold, 0.5 µM, splits the recorded SC1.5 (concentration of activator that produced a 50% increase in the activity of GK) values: lower ones are Y, equal or higher ones are N.

Is SC1.5 (concentration of activator that produced a 50% increase in the activity of GK) strictly under 0.5 µM for the entry COc1ccc2c(c1)C(=O)C(=O)N2C(CC1CCCC1)C(=O)Nc1nccs1 (centres unmarked) [Example 48] ? N

Is SC1.5 (concentration of activator that produced a 50% increase in the activity of GK) strictly under 0.5 µM for the entry COc1ccc2c(c1)CC(=O)N2C(CC1CCCC1)C(=O)Nc1ccn(C)n1 (centres unmarked) [Example 50] ? N

Is SC1.5 (concentration of activator that produced a 50% increase in the activity of GK) strictly under 0.5 µM for the entry O=C(Nc1nccs1)C(CC1CCCC1)N1C(=O)Cc2ccc(Cl)cc21 (centres unmarked) [Example 123] ? Y

Is SC1.5 (concentration of activator that produced a 50% increase in the activity of GK) strictly under 0.5 µM for the entry O=C(Nc1cnccn1)C(CC1CCCC1)N1C(=O)Cc2ccc(Cl)cc21 (centres unmarked) [Example 121] ? Y

Is SC1.5 (concentration of activator that produced a 50% increase in the activity of GK) strictly under 0.5 µM for the entry O=C(Nc1nccs1)C(CC1CCCC1)N1C(=O)Cc2ccc(F)cc21 (centres unmarked) [Example 125] ? Y

---

- ASSAY TARGET: Recombinant human liver GK1 (GST-GK) (Homo sapiens, UniProt P35557)
- Construct: made in house; host or cells: E. coli
- ASSAY REMARKS: In vitro glucokinase activity, G6PDH-coupled spectrophotometric assay
- Format: biochemical
- EXPERIMENTAL PARAMETERS: 5 mM D-glucose, 30° C., pH 7.1
METRIC: SC1.5 (concentration of activator that produced a 50% increase in the activity of GK) (µM)
Return type: number; implicit unit µM.

Given the entry O=C1C(=O)N(C(CC2CCCC2)C(=O)Nc2cnccn2)c2ccc(OC(F)(F)F)cc21 (centres unmarked) , report its measured SC1.5 (concentration of activator that produced a 50% increase in the activity of GK). 1.5

Given the entry O=C(Nc1ccccn1)C(CC1CCCC1)N1C(=O)Cc2ccc(F)cc21 (centres unmarked) , report its measured SC1.5 (concentration of activator that produced a 50% increase in the activity of GK). 0.18

Given the entry O=C1C(=O)N(C(CC2CCCC2)C(=O)Nc2nccs2)c2ccccc21 (centres unmarked) , report its measured SC1.5 (concentration of activator that produced a 50% increase in the activity of GK). 5.21

Given the entry O=C1C(=O)N(C(CC2CCCC2)C(=O)Nc2ccccn2)c2cccc(Cl)c21 (centres unmarked) , report its measured SC1.5 (concentration of activator that produced a 50% increase in the activity of GK). 1.9

Given the entry CC(C)CC(C(=O)Nc1ccccn1)N1C(=O)Cc2cc(Br)ccc21 (centres unmarked) , report its measured SC1.5 (concentration of activator that produced a 50% increase in the activity of GK). 3.24

---

- ASSAY TARGET: Recombinant human liver GK1 (GST-GK) (Homo sapiens, UniProt P35557)
- Construct: made in house; host or cells: E. coli
- Sequence (P35557 1-466 isoform P35557-2): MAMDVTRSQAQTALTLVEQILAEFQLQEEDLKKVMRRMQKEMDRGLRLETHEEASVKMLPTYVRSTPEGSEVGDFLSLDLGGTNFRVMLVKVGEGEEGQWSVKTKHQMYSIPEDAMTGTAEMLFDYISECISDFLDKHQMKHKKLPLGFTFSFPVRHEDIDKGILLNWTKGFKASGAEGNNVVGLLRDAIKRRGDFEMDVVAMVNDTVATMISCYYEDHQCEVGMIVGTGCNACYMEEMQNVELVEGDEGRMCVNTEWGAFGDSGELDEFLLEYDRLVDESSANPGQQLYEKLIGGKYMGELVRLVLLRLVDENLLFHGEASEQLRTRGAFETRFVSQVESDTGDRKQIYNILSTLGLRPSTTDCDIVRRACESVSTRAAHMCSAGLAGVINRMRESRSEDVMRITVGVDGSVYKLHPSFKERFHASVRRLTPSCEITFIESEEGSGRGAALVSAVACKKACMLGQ
- ASSAY REMARKS: In vitro glucokinase activity, G6PDH-coupled spectrophotometric assay
- Format: biochemical
- EXPERIMENTAL PARAMETERS: 5 mM D-glucose, 30° C., pH 7.1
METRIC: SC1.5 (concentration of activator that produced a 50% increase in the activity of GK) (µM)
Return type: number; implicit unit µM.

Given the entry CC(C)CC(C(=O)Nc1ccccn1)N1C(=O)Cc2ccc(Cl)cc21 (centres unmarked) [Example 114] , report its measured SC1.5 (concentration of activator that produced a 50% increase in the activity of GK). 0.91

Given the entry Cn1ccc(NC(=O)C(CC2CCCC2)N2C(=O)Cc3ccc(Br)cc32)n1 (centres unmarked) [Example 136] , report its measured SC1.5 (concentration of activator that produced a 50% increase in the activity of GK). 0.88

Given the entry Cn1ccc(NC(=O)C(CC2CCCC2)N2C(=O)Cc3cc(OC(F)(F)F)ccc32)n1 (centres unmarked) [Example 34] , report its measured SC1.5 (concentration of activator that produced a 50% increase in the activity of GK). 1.07

Given the entry O=C1C(=O)N(C(CC2CCCC2)C(=O)Nc2cnccn2)c2cccc(Cl)c21 (centres unmarked) [Example 13] , report its measured SC1.5 (concentration of activator that produced a 50% increase in the activity of GK). 6.94

Given the entry CC(C)CC(C(=O)Nc1ccccn1)N1C(=O)C(=O)c2cc(Cl)ccc21 (centres unmarked) [Example 102] , report its measured SC1.5 (concentration of activator that produced a 50% increase in the activity of GK). 16.89

Given the entry O=C(Nc1nccs1)C(CC1CCCC1)N1C(=O)Cc2cc(Br)ccc21 (centres unmarked) [Example 66] , report its measured SC1.5 (concentration of activator that produced a 50% increase in the activity of GK). 1.69

Given the entry O=C(Nc1ccccn1)C(CC1CCCC1)N1C(=O)Cc2cc(Br)ccc21 (centres unmarked) [Example 64] , report its measured SC1.5 (concentration of activator that produced a 50% increase in the activity of GK). 0.48

Given the entry Cc1ccc2c(c1)CC(=O)N2C(CC(C)C)C(=O)Nc1nccs1 (centres unmarked) [Example 88] , report its measured SC1.5 (concentration of activator that produced a 50% increase in the activity of GK). 22.88

Given the entry CC(C)CC(C(=O)Nc1nccs1)N1C(=O)Cc2ccc(Cl)cc21 (centres unmarked) [Example 115] , report its measured SC1.5 (concentration of activator that produced a 50% increase in the activity of GK). 1.48

Given the entry O=C1C(=O)N(C(CC2CCCC2)C(=O)Nc2cnccn2)c2ccc(Cl)cc21 (centres unmarked) [Example 96] , report its measured SC1.5 (concentration of activator that produced a 50% increase in the activity of GK). 4.04

Given the entry Cn1ccc(NC(=O)C(CC2CCCC2)N2C(=O)Cc3ccccc32)n1 (centres unmarked) [Example 7] , report its measured SC1.5 (concentration of activator that produced a 50% increase in the activity of GK). 17.55

Given the entry O=C(Nc1cnccn1)C(CC1CCCC1)N1C(=O)Cc2ccc(Br)cc21 (centres unmarked) [Example 133] , report its measured SC1.5 (concentration of activator that produced a 50% increase in the activity of GK). 0.34

Given the entry Cn1ccc(NC(=O)C(CC2CCCC2)N2C(=O)Cc3cc(Cl)ccc32)n1 (centres unmarked) [Example 99] , report its measured SC1.5 (concentration of activator that produced a 50% increase in the activity of GK). 3.3

Given the entry COc1ccc2c(c1)CC(=O)N2C(CC1CCCC1)C(=O)Nc1cnccn1 (centres unmarked) [Example 52] , report its measured SC1.5 (concentration of activator that produced a 50% increase in the activity of GK). 4.76

Given the entry COc1ccc2c(c1)CC(=O)N2C(CC(C)C)C(=O)Nc1nccs1 (centres unmarked) [Example 56] , report its measured SC1.5 (concentration of activator that produced a 50% increase in the activity of GK). 22.75

Given the entry CC(C)CC(C(=O)Nc1ccccn1)N1C(=O)Cc2cc(OC(F)(F)F)ccc21 (centres unmarked) [Example 43] , report its measured SC1.5 (concentration of activator that produced a 50% increase in the activity of GK). 1.41

Given the entry CC(C)CC(C(=O)Nc1ccn(C)n1)N1C(=O)C(=O)c2cc(OC(F)(F)F)ccc21 (centres unmarked) [Example 39] , report its measured SC1.5 (concentration of activator that produced a 50% increase in the activity of GK). 21.28

Given the entry COc1ccc2c(c1)C(=O)C(=O)N2C(CC1CCCC1)C(=O)Nc1ccccn1 (centres unmarked) [Example 46] , report its measured SC1.5 (concentration of activator that produced a 50% increase in the activity of GK). 2.32

Given the entry O=C(Nc1cnccn1)C(CC1CCCC1)N1C(=O)Cc2cc(OC(F)(F)F)ccc21 (centres unmarked) [Example 36] , report its measured SC1.5 (concentration of activator that produced a 50% increase in the activity of GK). 0.63

Given the entry O=C(Nc1ccccn1)C(CC1CCCC1)N1C(=O)Cc2ccccc21 (centres unmarked) [Example 8] , report its measured SC1.5 (concentration of activator that produced a 50% increase in the activity of GK). 4.93

Given the entry Cc1ccc2c(c1)N(C(CC1CCCC1)C(=O)Nc1ccn(C)n1)C(=O)C2 (centres unmarked) [Example 131] , report its measured SC1.5 (concentration of activator that produced a 50% increase in the activity of GK). 2.28

Given the entry CC(C)CC(C(=O)Nc1ccccn1)N1C(=O)Cc2cc(Cl)ccc21 (centres unmarked) [Example 108] , report its measured SC1.5 (concentration of activator that produced a 50% increase in the activity of GK). 4.95

Given the entry O=C1C(=O)N(C(CC2CCCC2)C(=O)Nc2cnccn2)c2ccc(Br)cc21 (centres unmarked) [Example 60] , report its measured SC1.5 (concentration of activator that produced a 50% increase in the activity of GK). 5.48

Given the entry Cn1ccc(NC(=O)C(CC2CCCC2)N2C(=O)Cc3cc(Br)ccc32)n1 (centres unmarked) [Example 65] , report its measured SC1.5 (concentration of activator that produced a 50% increase in the activity of GK). 2.71

Given the entry COc1ccc2c(c1)C(=O)C(=O)N2C(CC1CCCC1)C(=O)Nc1cnccn1 (centres unmarked) [Example 45] , report its measured SC1.5 (concentration of activator that produced a 50% increase in the activity of GK). 12.29

Given the entry O=C1C(=O)N(C(CC2CCCC2)C(=O)Nc2ccccn2)c2ccc(Cl)cc21 (centres unmarked) [Example 94] , report its measured SC1.5 (concentration of activator that produced a 50% increase in the activity of GK). 1.04

Given the entry Cc1ccc2c(c1)CC(=O)N2C(CC(C)C)C(=O)Nc1ccccn1 (centres unmarked) [Example 90] , report its measured SC1.5 (concentration of activator that produced a 50% increase in the activity of GK). 12.84

Given the entry O=C(Nc1nccs1)C(CC1CCCC1)N1C(=O)Cc2ccc(Br)cc21 (centres unmarked) [Example 134] , report its measured SC1.5 (concentration of activator that produced a 50% increase in the activity of GK). 0.19

Given the entry CC(C)CC(C(=O)Nc1cnccn1)N1C(=O)C(=O)c2ccc(Cl)cc21 (centres unmarked) [Example 112] , report its measured SC1.5 (concentration of activator that produced a 50% increase in the activity of GK). 4.85
